System: E. coli TESEC Mtb DapB
PROTOCOL_SUMMARY: growth (OD600 after 10 h); higher = more growth (less inhibition)
ASSAY_CONTEXT: arabinose induction (level): Low; compound 0.1 mM; raw OD600 reference: median of DMSO wells 0.227, cell-free background 0.041
Counter-ions that a name gives are not always drawn.
VALUE_TYPE: growth
One number for each entry.

Use the examples below as a reference point.
Entry O=C(c1ccccc1)c1ccc2n1CCC2C(=O)O (stereo not given) ; growth = 0.216

// growth lookup, molecule = CCN(CC)CCNC(=O)c1ccc(N)cc1 [Procainamide hydrochloride] , result: 0.201

Recorded result, CCn1cc(C(=O)O)c(=O)c2cc(F)c(N3CCNCC3)cc21 , growth: 0.0745

Field growth (entry CCCC(=O)Nc1ncnc2c1ncn2[C@@H]1O[C@@H]2COP(=O)(O)O[C@H]2[C@H]1OC(=O)CCC [Bucladesine sodium salt] ) reads 0.218

Continuing:
// O=C(c1ccc(OCCN2CCCCC2)cc1)c1c(-c2ccc(O)cc2)sc2cc(O)ccc12 [Raloxifene hydrochloride] : growth value = 0.0509

---

Consider the following compounds; for each one, report its growth.
Tested on: E. coli TESEC Mtb Alr
PROTOCOL_SUMMARY: growth (OD600 after 10 h); higher = more growth (less inhibition)
ASSAY_CONTEXT: arabinose 100000 nM; compound 0.1 mM; raw OD600 reference: median of DMSO wells 0.201, cell-free background 0.041
Counter-ions that a name gives are not always drawn.
Give bare numbers.

Reference set (2 entries):
The value of growth measured for the compound O=C(CCCN1CCN(c2ccccn2)CC1)c1ccc(F)cc1 turned out to be 0.164

C[C@H](N)[C@H](O)c1cccc(O)c1 [Metaraminol bitartrate] yielded growth of 0.186

Would you kindly look at the next entry?
Lab book: growth of CCCNC(C)C(=O)Nc1ccccc1C (stereo not drawn) [Prilocaine hydrochloride] noted as 0.187

---

System: E. coli TESEC Mtb DapB
PROTOCOL_SUMMARY: growth (OD600 after 10 h); higher = more growth (less inhibition)
ASSAY_CONTEXT: arabinose induction (level): High; compound 0.1 mM; raw OD600 reference: median of DMSO wells […], cell-free background 0.041
VALUE_TYPE: growth
One number for each entry.

# example entries with known answers
Entry CCCSc1ccc2[nH]c(NC(=O)OC)nc2c1 [Albendazole] ; growth = 0.205

Consider CN(C(=O)C(Cl)Cl)c1ccc(OC(=O)c2ccco2)cc1 [Diloxanide furoate] . Its measured growth is 0.205

Notebook: C[N+](C)(C)CCCCCC[N+](C)(C)C [Hexamethonium dibromide dihydrate] , growth read as 0.205

# input for lookup
For record O=S(=O)(O)CCS [Mesna] the listed growth is 0.204

---

Tested on: E. coli TESEC Mtb Alr
PROTOCOL_SUMMARY: growth (OD600 after 10 h); higher = more growth (less inhibition)
ASSAY_CONTEXT: arabinose 10000000 nM; compound 0.1 mM; raw OD600 reference: median of DMSO wells […], cell-free background 0.052
Structures can show the parent of a compound that is named as a salt.
Task for the reader: assign each of the following molecules its reported growth.
One number for each entry.

Lab note: measured growth of NNc1nncc2ccccc12 [Hydralazine hydrochloride] was 0.304

In plain terms, COc1ccc2cc(CCC(C)=O)ccc2c1 has a documented growth of 0.297

Given item CC1(C)O[C@@H]2[C@@H](CO[C@@]3(COS(N)(=O)=O)OC(C)(C)O[C@@H]23)O1 [Topiramate] , the value recorded as its growth is 0.302

Field: next molecule
growth reported for this molecule CCCC1C(=O)N2C(N(C)C)=Nc3ccc(C)cc3N2C1=O (centres undefined) : 0.301

---

System: E. coli TESEC Alr+ wild-type control
PROTOCOL_SUMMARY: growth (OD600 after 10 h); higher = more growth (less inhibition)
ASSAY_CONTEXT: compound 0.1 mM; raw OD600 reference: median of DMSO wells 0.49, cell-free background 0.052
Structures can show the parent of a compound that is named as a salt.
VALUE_TYPE: growth
Give bare numbers.

In plain terms, Nc1nnc(-c2cccc(Cl)c2Cl)c(N)n1 [Lamotrigine] has a documented growth of 0.46

// recorded growth for CN1CCC(OC(c2ccccc2)c2ccccc2)CC1 [Diphenylpyraline hydrochloride] : 0.47

// growth lookup, compound = CN(C)CCOC(=O)COc1ccc(Cl)cc1 [Meclofenoxate hydrochloride] , result: 0.511

Form field growth, entry CN(C)CCOC(c1ccccc1)c1ccccc1.Cn1c(=O)c2[nH]c(Cl)nc2n(C)c1=O [Dimenhydrinate] : 0.53

The compound listed as c1ccc2c(c1)CCCc1cc(NCCN3CCOCC3)nnc1-2 shows growth equal to 0.485

As a next step, examine the compound that follows.
Lab book: growth of CN1CCN2c3ncccc3Cc3ccccc3C2C1 (stereo unspecified) [Mirtazapine] noted as 0.468

---

Tested on: E. coli TESEC Mtb Alr
PROTOCOL_SUMMARY: growth (OD600 after 10 h); higher = more growth (less inhibition)
ASSAY_CONTEXT: arabinose 100 nM; compound 0.1 mM; raw OD600 reference: median of DMSO wells 0.413, cell-free background 0.052
Structures can show the parent of a compound that is named as a salt.
Give measured growth for each item. Keep answers brief.
Give bare numbers.

Here is how some compounds turned out for growth.
Item: CC(C)(Sc1cc(C(C)(C)C)c(O)c(C(C)(C)C)c1)Sc1cc(C(C)(C)C)c(O)c(C(C)(C)C)c1 | growth: 0.407

// field: growth; key: CCCCNc1ccc(C(=O)OCCOCCOCCOCCOCCOCCOCCOCCOCCOC)cc1 [Benzonatate] ; value = 0.407

Entry COc1ccccc1N1CCN(CCCNc2cc(=O)n(C)c(=O)n2C)CC1 [Urapidil hydrochloride] — recorded growth = 0.409

Noted for Clc1ccc2c(c1)CCc1cccnc1C2=C1CCNCC1 : its growth reads 0.398

Could I get growth for every one of these entries?
1. N=C(N)NCc1cccc(I)c1 [Iobenguane sulfate]
2. NS(=O)(=O)Cc1noc2ccccc12 [Zonisamide]
3. CCOc1ccc(Cc2nccc3cc(OCC)c(OCC)cc23)cc1OCC [Ethaverine hydrochloride]
4. C[n+]1ccccc1/C=N/O [Pralidoxime chloride]
5. Cc1onc(-c2c(Cl)cccc2Cl)c1C(=O)N[C@@H]1C(=O)N2[C@@H]1SC(C)(C)[C@@H]2C(=O)O [Dicloxacillin sodium salt hydrate]
6. CCOC(=O)/C=C(C)/C=C/C=C(C)/C=C/c1c(C)cc(OC)c(C)c1C [Etretinate]
7. CCN(CC)CCNC(C(=O)OCCC(C)C)c1ccccc1 (configuration not stated) [Camylofine chlorhydrate]

Solution:
1. 0.409
2. 0.406
3. 0.403
4. 0.407
5. 0.403
6. 0.41
7. 0.406

Hi team, please reply with growth for each item in this list.
1. CN(C)CCC(c1ccccc1)c1ccccn1 (configuration not stated) [Pheniramine maleate]
2. CC(C)[C@H](N)C(=O)OCCOCn1cnc2c(=O)nc(N)[nH]c21 [Valacyclovir hydrochloride]
3. O=C(O)c1cc(=O)c2c(OCC(O)COc3cccc4oc(C(=O)O)cc(=O)c34)cccc2o1 [Cromolyn disodium salt]
4. CCCCOc1cc(C(=O)OCCN(CC)CC)ccc1N [Benoxinate hydrochloride]
5. CC(C)(C#N)c1cc(Cn2cncn2)cc(C(C)(C)C#N)c1

Solution:
1: 0.41; 2: 0.408; 3: 0.403; 4: 0.412; 5: 0.409

Recorded result, CC1CC(OC(=O)C(O)c2ccccc2)CC(C)(C)N1C (configuration not stated) [Eucatropine hydrochloride] , growth: 0.402

---

System: E. coli TESEC Alr+ wild-type control
PROTOCOL_SUMMARY: growth (OD600 after 10 h); higher = more growth (less inhibition)
ASSAY_CONTEXT: compound 0.1 mM; raw OD600 reference: median of DMSO wells 0.49, cell-free background 0.052
Structures can show the parent of a compound that is named as a salt.
VALUE_TYPE: growth
Numbers only.

Observe how each entry below is paired with its result.
Value of growth reported for the compound OC(CCN1CCCCC1)(c1ccccc1)C1CCCCC1 (stereo not given) [Trihexyphenidyl-D,L Hydrochloride] is 0.452

// field: growth; key: Cc1cc(C(C)(C)CC(C)(C)C)ccc1OCCOCC[N+](C)(C)Cc1ccccc1 [Methyl benzethonium chloride] ; value = 0.0474

Kindly give each listed record's growth.
1. CSc1ccc2c(c1)C(N1CCN(C)CC1)Cc1ccccc1S2 (stereo not given) [Methiothepin maleate]
2. CCOc1cc(CC(=O)N[C@@H](CC(C)C)c2ccccc2N2CCCCC2)ccc1C(=O)O [Repaglinide]
3. CCCNC(C)(C)COC(=O)c1ccccc1 [Meprylcaine hydrochloride]

Solution:
1: 0.0483; 2: 0.482; 3: 0.619

---

Test system: E. coli TESEC Mtb Alr
PROTOCOL_SUMMARY: growth (OD600 after 10 h); higher = more growth (less inhibition)
ASSAY_CONTEXT: arabinose 100000 nM; compound 0.1 mM; raw OD600 reference: median of DMSO wells 0.201, cell-free background 0.041
Structures can show the parent of a compound that is named as a salt.
Assignment: determine reported growth for the given molecules.
Answers are plain numbers.

# annotated cases, reported growth shown
Observed growth on E. coli TESEC Mtb Alr, entry Nc1ccc(S(=O)(=O)Nc2ncccn2)cc1 [Sulfadiazine] , equals 0.199

Log: E. coli TESEC Mtb Alr, molecule Cc1ccc(O)c([C@H](CCN(C(C)C)C(C)C)c2ccccc2)c1 [Tolterodine tartrate] , growth = 0.201

// switching to the query molecule
Tested on E. coli TESEC Mtb Alr: CCS(=O)(=O)CCn1c([N+](=O)[O-])cnc1C [Tinidazole] . Observed growth: 0.198
